// data source = ChEMBL document CHEMBL4513216

test system: Plasmodium berghei; experiment: Screen against P. berghei liver stage (PbLuc), transformed with Luciferase, at 10uM; type: functional, HepG2; settings: tested at 10 uM
Hit rate of the full screen: of about 69,000 compounds, about 8,600 (12%) showed an effect of 50% or more. For the sample, strong results were picked, then their nearest neighbours and some compounds at random.
Endpoint: INHIBITION (%)

molecule="CC1CCc2n[nH]c(C(=O)NCCCc3ccccn3)c2C1 (centres undefined)" recorded_number=-41.8
molecule="CC(C)c1nnc(CN2CCCC(Cn3cncn3)C2)o1 (centres undefined)" recorded_number=22.03
molecule=Cc1ccc(C(=O)N2CCN(Cc3ccccc3)CC2)n1C recorded_number=27.6
molecule="Cc1cc(N2CCC(O)CC2)nc(C2CCCN2C)n1 (centres undefined)" recorded_number=9.6

---

system: Plasmodium berghei; test: Screen against P. berghei liver stage (PbLuc), transformed with Luciferase, at 10uM; format: functional, HepG2; conditions: tested at 10 uM
Hit rate of the full screen: of about 69,000 compounds, about 8,600 (12%) showed an effect of 50% or more. For the sample, strong results were picked, then their nearest neighbours and some compounds at random.
Recorded INHIBITION for the following molecules
Endpoint: INHIBITION (%)

molecule=Cc1ccccc1NC(=O)c1cncc(C2CCNCC2)n1 endpoint=INHIBITION recorded_number=-20.6
molecule=COc1cccc2c1ccn2CCNC(=O)C1CCC1 endpoint=INHIBITION recorded_number=-46.8
molecule="Cc1c(CN2CCCC2(C)C(=O)NC2CCCC2)cnn1C (stereo not drawn)" endpoint=INHIBITION recorded_number=1.62

---

tested on: Plasmodium berghei; assay: Screen against P. berghei liver stage (PbLuc), transformed with Luciferase, at 10uM; type: functional, HepG2; conditions: tested at 10 uM
Screen size: about 69,000 compounds; about 8,600 (12%) showed an effect of 50% or more. This excerpt belongs to a sample that is enriched for strong results.
Overview of reported INHIBITION across a group of compounds:
Endpoint: INHIBITION (%)

compound=COc1ccc(NC(C)=O)cc1S(=O)(=O)Nc1ccon1 endpoint=INHIBITION recorded_number=35.7
compound=CCC[C@H]1CN(Cc2nccn2C)C[C@@H]1NC(=O)C1(COC)CCC1 endpoint=INHIBITION recorded_number=31.2
compound=CN(C(=O)Cn1nc(-c2ccc(F)cc2)oc1=O)c1ccccc1 endpoint=INHIBITION recorded_number=42.6
compound="CCN1CCCC(O)(CN(C)Cc2ccccc2F)C1 (stereo not given)" endpoint=INHIBITION recorded_number=8.46
compound="Cc1c(C(=O)NC(C)C(C)C)nnn1-c1cccc2c1CCN(C)C2 (stereo not given)" endpoint=INHIBITION recorded_number=11.8
compound="O=C(COc1ccc(F)cc1F)N1CCOCC(O)(CN2CCCC2)C1 (stereo not given)" endpoint=INHIBITION recorded_number=11.8
compound=CCc1cc(=O)[nH]c2nnc(SCC(=O)N3CCC(C)CC3)n12 endpoint=INHIBITION recorded_number=14.4
compound=CN(CCC#N)C(=O)Cn1nnnc1C(C)(C)C endpoint=INHIBITION recorded_number=61.9
compound="CC(O)(CNC(=O)c1c(F)cccc1Cl)C1CC1 (stereo not given)" endpoint=INHIBITION recorded_number=9.79
compound="c1cncc(N2CCOCC3(CCCN(c4nncs4)C3)C2)c1 (stereo not given)" endpoint=INHIBITION recorded_number=43.2
compound=COC[C@@]12CC[C@@H](N3CCOCC3)C[C@H]1CCN(c1nc(CO)cs1)C2 endpoint=INHIBITION recorded_number=15.8
compound=Cc1nc(CN2CCCN(CC(=O)N(C)CCC#N)CC2)no1 endpoint=INHIBITION recorded_number=36.5
compound=COc1ccc(Nc2nc(N)c(C(C)=O)s2)cc1Cl endpoint=INHIBITION recorded_number=17.6
compound=CCC[C@H]1CN(Cc2cc(C)no2)C[C@@H]1NC(=O)C1(COC)CCC1 endpoint=INHIBITION recorded_number=59.3
compound="Cc1cc(C)n(CC2CCCN2CC(=O)N(C)CCC#N)n1 (stereo not given)" endpoint=INHIBITION recorded_number=36.1

---

system: Plasmodium berghei; experiment: Screen against P. berghei liver stage (PbLuc), transformed with Luciferase, at 10uM; type: functional, HepG2; details: tested at 10 uM
Out of some 69,000 compounds screened, about 8,600 (12%) showed an effect of 50% or more. The full list was thinned out, with strong results kept by preference.
Endpoint: INHIBITION

compound=CN1CC[C@@H]2[C@@H]1CCN2Cc1ccc2c(c1)OCO2 result=35.8%
compound="CC(C(=O)NCc1ccc(N2CCCCCC2)nc1)S(C)(=O)=O (stereo unspecified)" result=-12.2%
compound=COc1ccc(CN(C)c2nccc(-c3cn(C)nc3C)n2)cc1 result=-7.76%
compound=Cn1cc(C[C@H]2[C@H](O)CCN2Cc2ccc3c(c2)OCO3)cn1 result=22.9%
compound=Cc1ncccc1-c1cc2cccnc2n1CCCNC(=O)C1CC1 result=25.8%
compound="COc1cc2c(cc1CNCc1ccnc(-n3cccn3)c1)OC(C)C2 (stereo unspecified)" result=67.8%
compound="COCC(=O)N1CCC(c2c(C(=O)N(C)C)sc3ncccc23)C1 (stereo unspecified)" result=9.54%
compound="Cc1cc(C)n(CC2CCCN2C(=O)c2cnccn2)n1 (stereo unspecified)" result=-3.7%
compound=COc1cccc(CNCc2cccnc2-n2cccn2)c1OC result=16.2%
compound=Cc1cc(CN2C[C@@H](N3CCN(C)CC3)[C@H]3OCCC[C@H]32)oc1C result=-30%
compound="CN(CC1CCCCO1)C(=O)c1ccnc(OC2CCC2)c1 (stereo unspecified)" result=9.48%
compound=Cc1nn(C)cc1CN(C)c1nccc(-c2cn(C)nc2C)n1 result=28%
compound=CN(Cc1ccoc1)c1ccc(-c2nccn2C)nn1 result=-120%
compound=CN(Cc1ccc(C#N)cc1)C(=O)c1ccnc(OC2CCC2)c1 result=51.4%
compound="COc1cc2c(cc1CNC(=O)Cc1ccc(C)nc1)OC(C)C2 (stereo unspecified)" result=-25.3%
compound=Cc1nn(C)cc1-c1ccnc(N(C)Cc2cccs2)n1 result=35.5%
compound=COCCc1noc(CN2C(=O)OC[C@@H]2C(C)C)n1 result=55.9%
compound=Cc1cc(C(=O)N2CCCN(Cc3cnn(C(C)C)c3)CC2)no1 result=39.3%
compound="CC(C)N1CC(C(=O)NCc2ccnc(-n3cccn3)c2)CC1=O (stereo unspecified)" result=-28%
compound=CC(C)n1cc(CN2CCCN(C(=O)c3cccn3C)CC2)cn1 result=34.6%
compound=Cc1nn(C)cc1-c1ccnc(N(C)Cc2cnn(C)c2)n1 result=74.5%
compound=Cc1cccc(CN2C(=O)CC[C@@H]3[C@H]2CCN3Cc2cccnc2)n1 result=31.1%
compound="CN(Cc1noc(C2CC2)n1)C1CCCN(c2cccnn2)C1 (stereo unspecified)" result=5.9%
compound=O=c1c(S(=O)(=O)N2CCCC2)cccn1Cc1ccccc1Cl result=29.6%
compound=Cc1cccc(OCCC(=O)N(C)CCNS(C)(=O)=O)c1C result=7.11%
compound=Cn1cnnc1C1CCN(C(=O)CCCOCc2ccccc2)CC1 result=43.2%

---

# INHIBITION annotations
test system: Plasmodium berghei; assay: Screen against P. berghei liver stage (PbLuc), transformed with Luciferase, at 10uM; assay type: functional, HepG2; settings: tested at 10 uM
Hit rate of the full screen: of about 69,000 compounds, about 8,600 (12%) showed an effect of 50% or more. This is one part of a sample in which strong results are shown more often than they occur.
Endpoint: INHIBITION (%)

compound=CCCS(=O)(=O)N1CCn2cc(CNc3ccccn3)nc2C1 recorded_number=23.3
compound=Cc1nnsc1C(=O)NCc1nn(C)c2c1COCC2 recorded_number=-2.09
compound="COc1cc(CNCC(O)c2ccccc2F)cc2c1OCO2 (centres undefined)" recorded_number=-9.37
compound=Oc1cc(-c2ccccn2)nc(C2CCN(Cc3ccncc3)CC2)n1 recorded_number=-44.8

---

Catalogue of INHIBITION readings, one per entry.
system: Plasmodium berghei; experiment: Screen against P. berghei liver stage (PbLuc), transformed with Luciferase, at 10uM; format: functional, HepG2; conditions: tested at 10 uM
The whole screen tested about 69,000 compounds, of which about 8,600 (12%) showed an effect of 50% or more. The sample holds strong results, similar compounds and a random draw of the others, so the mix is not that of the screen.
Endpoint: INHIBITION (%)

compound="Cc1cc(CN2CCCC2c2noc(C(C)C)n2)on1 (stereo not given)" recorded_number=47
compound=CC(C)[C@@H]1CN(C(=O)CCn2ccccc2=O)C[C@H]1NS(C)(=O)=O recorded_number=8.53
compound=CC(C)[C@H]1CN(c2ccncc2)C[C@@H]1NS(=O)(=O)N(C)C recorded_number=76.8
compound="O=C1CSC(c2ccncc2)c2c(n(C3CCOCC3)[nH]c2=O)N1 (stereo not given)" recorded_number=52.1
compound=O=C(CCNc1ccccc1)NC1CCN(C(=O)C2CCCCC2)CC1 recorded_number=27.6
compound="O=C1CSC(c2ccsc2)c2c(n(C3CCOCC3)[nH]c2=O)N1 (stereo not given)" recorded_number=67.1
compound="CN1CC(=O)N(c2ccccc2)CC12CCN(Cc1cccnc1)C2 (stereo not given)" recorded_number=8.47
compound="O=C(c1cc2c(F)cccc2[nH]1)N1CCCCC1Cn1cccn1 (stereo not given)" recorded_number=-4.94
compound=O=C(C[C@@H]1COC[C@H]2CN(C3CCCC3)C[C@@H]12)NCc1cccnc1 recorded_number=20.6
compound="CN(C)CCN1C(=O)CCCC12CCCN(Cc1cccs1)C2 (stereo not given)" recorded_number=-3.58
compound=Cc1cc(NC(=O)NCCCSc2nncn2C)no1 recorded_number=15
compound=CC(C)[C@@H]1CN(C(=O)NCc2ccco2)C[C@H]1N(C)C recorded_number=31.4
compound=CC(C)[C@@H]1CN(c2ccc(C(F)(F)F)cn2)C[C@H]1NS(C)(=O)=O recorded_number=26.4
compound=Cc1sc2ncc(-c3ccnc(NC4CCN(C)CC4)n3)c(=O)n2c1C recorded_number=24.8
compound="CCCN(Cc1nnnn1C1CC1)CC1COc2ccccc2O1 (stereo not given)" recorded_number=-16.6
compound="CC(C)Cn1nnnc1SC(C(=O)NCc1cccnc1)C(C)C (stereo not given)" recorded_number=16.9
compound=CC(C)[C@@H]1CN(c2ncc(F)cn2)C[C@H]1NS(=O)(=O)N(C)C recorded_number=41.7
compound="CC(=O)N1N=C(c2cccs2)OC1C(=O)NCCc1cccc(Cl)c1 (stereo not given)" recorded_number=25.3
compound=CC(C)[C@H]1CN(c2ccncc2)C[C@@H]1NC(=O)C1(C#N)CCOCC1 recorded_number=10.9
compound=COCCOCCNC(=O)c1cccc(Cn2nc(C)cc2C)c1 recorded_number=26.6
compound=CC(C)[C@@H]1CN(CC(=O)NCc2ccco2)C[C@H]1NS(=O)(=O)N(C)C recorded_number=27.8
compound="N#Cc1cccc(CS(=O)(=O)NCC(O)Cc2ccccc2)c1 (stereo not given)" recorded_number=30.8
compound=CC(C)[C@@H]1CN(C(=O)NCc2ccco2)C[C@H]1NS(=O)(=O)N(C)C recorded_number=62.8
compound=CS(=O)(=O)Cc1noc(CN(Cc2ccco2)c2ccccc2)n1 recorded_number=54.4
compound="CCN(CC1CCOC1)C(=O)Cn1nnn(-c2cccs2)c1=O (stereo not given)" recorded_number=12.8
compound="O=S(=O)(Cc1ccccc1F)NC(CO)c1ccco1 (stereo not given)" recorded_number=45.1
compound=CC(=O)N1CCC(NC(=O)N(C)Cc2c(C)noc2C)CC1 recorded_number=-35.61
compound=CC(C)[C@H]1CN(C2Cc3ccccc3C2)C[C@@H]1NS(C)(=O)=O recorded_number=55
compound=O=C(Cc1ccccn1)N1CC[C@]2(C[C@@H](Oc3ncccc3F)CO2)C1 recorded_number=35.8
compound="CC(C)Cc1cc(C(=O)NCC(O)CN2CCCCCC2)on1 (stereo not given)" recorded_number=-8.47
compound=CCOc1ccc(C(=O)N(Cc2cnn(C)c2)C(C)C)cc1OCC recorded_number=27.8
compound="O=C(Cn1nnn(-c2cccs2)c1=O)NCC1CCOC1 (stereo not given)" recorded_number=13.7
compound="CCc1nc2n(n1)CC(NCc1cnc(N(CC)CC)s1)CC2 (stereo not given)" recorded_number=30.5
compound="CC(C)Cc1cc(C(=O)NCC2CCCN(Cc3ccco3)C2)on1 (stereo not given)" recorded_number=-63.8
compound="O=C(Cn1nnn(-c2cccs2)c1=O)N(CC1CCOC1)C1CC1 (stereo not given)" recorded_number=51.7
compound="N#Cc1cccc(CS(=O)(=O)NCCC(O)c2ccccc2)c1 (stereo not given)" recorded_number=24.5
compound="NC(=O)C(Cc1ccccc1)NS(=O)(=O)Cc1ccccc1F (stereo not given)" recorded_number=50.5
compound=O=c1cc2c(nn1CN1CCN(c3ccc(F)cc3)CC1)CCC2 recorded_number=-6.53
compound="N#Cc1cccc(CS(=O)(=O)NC(Cc2ccccc2)C(N)=O)c1 (stereo not given)" recorded_number=58.1
compound="CC1(Cc2ccc(Cl)cc2)Cc2cc(CCC(=O)O)ccc2O1 (stereo not given)" recorded_number=-29.4
